These data points were gathered from PubChem BioAssay (NCI).

Provide the recorded TGI for the entries that follow.
# System: SK-OV-3 ovarian
# protocol: NCI tumour cell line growth inhibition, 48 h

Report TGI, nothing else, for this compound: `Cc1c2ccccc2cc2ccc3oc([N+](=O)[O-])cc3c12`
> 100 µM

Report TGI, nothing else, for this compound: `C/C(=N\NC(=O)CC#N)c1c(O)cc(C)oc1=O`
> 100 µM

Report TGI, nothing else, for this compound: CN(C)CC1CCC(CN(C)C)C1=O (stereo not drawn)
30.6 µM

Report TGI, nothing else, for this compound: `NC(=S)NN/C=C(\C=Nc1ccccc1)[N+](=O)[O-]`
> 100 µM

Report TGI, nothing else, for this compound: `C[n+]1c(-c2ccc(/C=C/C=N\NC(=O)c3ccc(C(=O)N/N=C\C=C\c4ccc(-c5cn6ccccc6[n+]5C)cc4)cc3)cc2)cn2ccccc21`
> 100 µM

Report TGI, nothing else, for this compound: `O=C(N/N=C/c1cccc(F)c1)c1ccncc1`
> 100 µM

Report TGI, nothing else, for this compound: `O=C(N/N=C/c1ccc(Br)cc1)N/N=C/c1ccc(Br)cc1`
7.96 µM

Report TGI, nothing else, for this compound: CC(C(=O)O)C(C)(O)C(=O)O (stereo not drawn)
> 100 µM

Report TGI, nothing else, for this compound: `Cc1ccc(C2=CC(=O)/C(=C\C(=O)c3ccc(Cl)cc3)O2)cc1`
56.7 µM

Report TGI, nothing else, for this compound: `Nc1ccc(/C=C/C(=O)NCc2cc3cc(-c4ccc(C(=O)N5CCC(F)(F)CC5)cc4)cc(-c4ccc(F)cc4)c3o2)cn1`
> 100 µM

Report TGI, nothing else, for this compound: `CC(C)(C)C(=O)[CH-]C(=O)C(C)(C)C.CC(C)(C)C(=O)[CH-]C(=O)C(C)(C)C.CN(C)c1ccc([O-])cc1.CN(C)c1ccc([O-])cc1.[Ti+4]`
> 100 µM

Report TGI, nothing else, for this compound: `O=C1NCN(c2ccccc2)C12CCN(CCCN1CCN(CCOC(c3ccc(F)cc3)c3ccc(F)cc3)CC1)CC2`
4.61 µM

Report TGI, nothing else, for this compound: `C=C1c2nc3ccccc3n2C=C(c2ccc(Cl)cc2)N1c1ccc(OC)cc1`
23.7 µM
